- Target Or Test System: wild-type Androgen Receptor (AR-wt) (Homo sapiens)
- Construct: expressed in transfected cells; host or cells: LNCaP (LNCaP AR (cs))
- Sequence (P10275 1-920): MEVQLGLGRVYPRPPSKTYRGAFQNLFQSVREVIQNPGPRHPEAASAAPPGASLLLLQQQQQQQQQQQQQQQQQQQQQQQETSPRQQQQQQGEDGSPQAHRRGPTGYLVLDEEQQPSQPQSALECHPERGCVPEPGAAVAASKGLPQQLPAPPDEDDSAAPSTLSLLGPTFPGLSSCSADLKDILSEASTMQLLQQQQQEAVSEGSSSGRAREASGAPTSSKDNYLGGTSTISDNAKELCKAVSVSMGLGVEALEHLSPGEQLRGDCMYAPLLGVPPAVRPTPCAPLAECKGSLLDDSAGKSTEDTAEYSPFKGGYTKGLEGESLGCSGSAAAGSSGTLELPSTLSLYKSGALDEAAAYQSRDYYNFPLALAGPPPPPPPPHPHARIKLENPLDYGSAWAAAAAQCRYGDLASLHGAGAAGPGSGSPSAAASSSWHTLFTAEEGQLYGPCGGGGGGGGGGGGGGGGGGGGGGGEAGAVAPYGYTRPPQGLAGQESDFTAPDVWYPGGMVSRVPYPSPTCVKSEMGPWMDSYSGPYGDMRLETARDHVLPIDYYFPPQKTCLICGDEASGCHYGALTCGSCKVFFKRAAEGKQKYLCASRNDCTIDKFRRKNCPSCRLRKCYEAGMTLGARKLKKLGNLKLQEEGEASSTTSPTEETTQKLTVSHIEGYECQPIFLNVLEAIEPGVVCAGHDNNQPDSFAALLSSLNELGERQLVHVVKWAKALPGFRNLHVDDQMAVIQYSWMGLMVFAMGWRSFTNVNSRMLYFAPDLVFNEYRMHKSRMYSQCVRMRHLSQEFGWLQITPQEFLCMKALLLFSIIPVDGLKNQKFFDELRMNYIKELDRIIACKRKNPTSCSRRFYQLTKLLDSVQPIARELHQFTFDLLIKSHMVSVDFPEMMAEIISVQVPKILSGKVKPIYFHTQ
- Procedure Text: LNCaP-AR-wt ANT reporter assay (ARE firefly luciferase, antagonist mode)
- Type: cell-based
- Assay Conditions: antagonist mode, 400 pM R-1881 challenge; −Log10(IC50 [Molar]); read-out: LNCaP-AR-wt ANT pIC50 (converted)
Parameter class (string): assigned from measured IC50. Ranges: bin A: < 400 nM; bin B: ≥ 400 nM and < 800 nM; bin C: ≥ 800 nM

IN: Form: Item = "N#Cc1ncc(N2C(=O)C3(CCC3)N(c3ccc(C(=O)NCc4ccccc4)c(F)c3)C2=S)cc1C(F)(F)F" ; Class = ?
OUT: bin C

IN: Which class holds "N#Cc1ncc(N2C(=O)C3(CCC3)N(c3ccc(Oc4ccccn4)cc3)C2=S)cc1C(F)(F)F" ?
OUT: bin B

IN: Could you tell me which band "Cc1cc(N2C(=O)C3(CCC3)N(c3ccc(C(=O)Nc4cncc(F)c4)c(F)c3)C2=S)cnc1C#N" belongs to?
OUT: bin C

IN: Place this compound in its band: "Cc1cc(N2C(=O)C(C)(C)N(c3ccc(OC4CCN(C)CC4)cc3)C2=S)cnc1C#N"
OUT: bin C

IN: Hi, small favor: classify "COc1ccc(N2C(=S)N(c3cnc(C#N)c(C)c3)C(=O)C23CCC3)cc1" by its IC50 when you get a moment.
OUT: bin A

IN: Into which bin does this compound go? "Cc1cc(N2C(=O)C3(CCC3)N(c3ccc(C4CCOCC4)cc3)C2=S)cnc1C#N"
OUT: bin B

IN: // bin(item) where item = "N#Cc1ncc(N2C(=O)C3(CCC3)N(c3ccc(C(=O)NCCCN4CCOCC4)c(F)c3)C2=S)cc1C(F)(F)F"
OUT: bin A

IN: The entry to classify is "Cc1cc(N2C(=O)C3(CCC3)N(c3ccc(C(=O)Nc4cccc(Cl)c4)c(F)c3)C2=S)cnc1C#N" ; which class holds it?
OUT: bin C

IN: Lab note: which band did "N#Cc1ncc(N2C(=O)C3(CCC3)N(c3ccc(OC4CCOCC4)cc3)C2=S)cc1C(F)(F)F" land in?
OUT: bin A

IN: Tag the class for "N#Cc1ncc(N2C(=O)C3(CCC3)N(c3ccc4ccccc4c3)C2=S)cc1C(F)(F)F"
OUT: bin A

IN: // bin(item) where item = "CN1CCC(NC(=O)c2ccc(N3C(=S)N(c4cnc(C#N)c(C(F)(F)F)c4)C(=O)C34CCC4)cc2F)CC1"
OUT: bin C

IN: Which bin, given its IC50, does "COCCOc1ccc(N2C(=S)N(c3cnc(C#N)c(C)c3)C(=O)C23CCC3)cc1F" occupy?
OUT: bin B

IN: Textbook exercise: identify the category of the compound given here, "N#Cc1cccc(N2C(=S)N(c3cnc(C#N)c(C(F)(F)F)c3)C(=O)C23CCC3)c1" , according to its measured value.
OUT: bin B

IN: Classify this compound: "Cc1cc(N2C(=O)C3(CCC3)N(c3ccc(C(=O)NCC4CCOCC4)c(F)c3)C2=S)cnc1C#N"
OUT: bin C

IN: Which class does "Cc1cc(N2C(=O)C3(CCC3)N(c3ccc(OCCN4CCN(C)CC4)cc3)C2=S)cnc1C#N" fall in?
OUT: bin B

IN: Place this compound in its band: "N#Cc1ncc(N2C(=O)C3(CCC3)N(c3ccc(C(=O)NCCc4ccccc4)c(F)c3)C2=S)cc1C(F)(F)F"
OUT: bin A

IN: Exam item: assign "N#Cc1ncc(N2C(=O)C3(CCC3)N(c3ccc(C(=O)Nc4ccccc4)c(F)c3)C2=S)cc1C(F)(F)F" to the correct category.
OUT: bin B

IN: Lab note: sort "N#Cc1ncc(N2C(=O)C3(CCC3)N(c3ccc(C(=O)NCc4ccc(Cl)cc4)c(F)c3)C2=S)cc1C(F)(F)F" into the matching IC50 band.
OUT: bin C

IN: Hello team, could you let me know which band the following compound falls into: "CN1CCN(Cc2ccc(N3C(=S)N(c4cnc(C#N)c(C(F)(F)F)c4)C(=O)C34CCC4)cc2)CC1"
OUT: bin A

IN: Input "Cc1cc(N2C(=O)C3(CCC3)N(c3ccc(C(=O)Nc4ccc(Cl)cc4)c(F)c3)C2=S)cnc1C#N" ; output its category
OUT: bin C

IN: Dear colleague, I would appreciate it if you could identify the bin for "N#Cc1ncc(N2C(=O)C3(CCC3)N(c3ccc(OCCN4CCCCC4)cc3F)C2=S)cc1C(F)(F)F" and reply at your convenience.
OUT: bin B

IN: Note: place this compound into its band. Item: "Cc1ccc(-c2ccc(N3C(=S)N(c4cnc(C#N)c(C)c4)C(=O)C34CCC4)cc2)o1"
OUT: bin A

IN: Classify this compound: "N#Cc1ccc(N2C(=S)N(c3cnc(C#N)c(C(F)(F)F)c3)C(=O)C23CCC3)cc1"
OUT: bin A

IN: // return the class label for "N#Cc1ncc(N2C(=O)C3(CCC3)N(c3ccc(C(N)=O)c(F)c3)C2=S)cc1C(F)(F)F"
OUT: bin C

IN: The entry to classify is "Cc1ccc(NC(=O)c2ccc(N3C(=S)N(c4cnc(C#N)c(C)c4)C(=O)C34CCC4)cc2F)cn1" ; which class holds it?
OUT: bin B

IN: Pick a category. Item: "Cc1cc(N2C(=O)C3(CCC3)N(c3ccc(Oc4ccncn4)cc3)C2=S)cnc1C#N"
OUT: bin A

IN: Which class is correct for the following compound? "Cc1cc(N2C(=O)C3(CCC3)N(c3ccc(-c4ccco4)cc3)C2=S)cnc1C#N"
OUT: bin A
